The origin of these recorded values is patent US20260198493A1.

System: Botrytis cinerea
Assay: Control test of cucumber gray mold (sprayed young cucumber seedlings)
Type: in vivo
Settings: 96 h, 25 ppm by mass spray, four days after inoculation
result_type: pest or weed control at 25 ppm

[
  {
    "molecule": "COC(=O)N(Cc1ccc(OC)cc1C)NC(=O)c1nc(C)ncc1Oc1cccc(C2CC2)c1F",
    "measured_on": "Botrytis cinerea",
    "result": "≥ 75%"
  },
  {
    "molecule": "COC(=O)N(Cc1ccc(C)cc1C)NC(=O)c1c(Oc2cccc(C3CC3)c2F)nnc(Cl)c1C",
    "measured_on": "Botrytis cinerea",
    "result": "≥ 75%"
  },
  {
    "molecule": "COC(=O)N(Cc1ccc(C)cc1C)NC(=O)c1c(C)cncc1Oc1cccc(C2CC2)c1",
    "measured_on": "Botrytis cinerea",
    "result": "≥ 75%"
  },
  {
    "molecule": "COC(=O)N(NC(=O)c1cc(C)nnc1Oc1cccc(C2CC2)c1F)C(C)c1ccc(C)cc1C (centres unmarked)",
    "measured_on": "Botrytis cinerea",
    "result": "≥ 75%"
  },
  {
    "molecule": "Cc1ccc(CN(NC(=O)c2ccncc2Oc2cccc(C3CC3)c2F)C(=O)OC2COC2)c(C)c1",
    "measured_on": "Botrytis cinerea",
    "result": "≥ 75%"
  },
  {
    "molecule": "COC(=O)N(Cc1ccc(C)cc1C)NC(=O)c1c(Cl)cncc1Oc1cccc(Cl)c1F",
    "measured_on": "Botrytis cinerea",
    "result": "≥ 75%"
  },
  {
    "molecule": "COC(=O)N(Cc1ccc(C)cc1C)NC(=O)c1cc(-n2cccn2)ncc1Oc1cccc(C2CC2)c1F",
    "measured_on": "Botrytis cinerea",
    "result": "≥ 75%"
  },
  {
    "molecule": "CCc1cc(C(=O)NN(Cc2ccc(OC)cc2C)C(=O)OC)c(Oc2cccc(C3CC3)c2F)nn1",
    "measured_on": "Botrytis cinerea",
    "result": "≥ 75%"
  }
]

###

Tested on: Venturia inaequalis
Test: Control test of apple scab disease (sprayed young apple seedlings)
Type: in vivo
Conditions: 125 ppm by mass spray, 12 to 14 days after inoculation
Description: [formula] […] Then, the drug liquid was sprayed onto young apple seedlings cultivated in a nursery pot (variety “Orin”, three-to four-leaf stage), and then air-dried. […] 12 Days to 14 days after inoculation, leaves of young apple seedlings were visually observed, and the control value was calculated from the lesion area ratio in accordance with the equation used in the control test of cucumber gray mold.

[
  {
    "molecule": "COC(=O)N(Cc1ccc(C2CC2)cc1)NC(=O)c1cc(C)nnc1Oc1cccc(C2CC2)c1F [b-163]",
    "pest or weed control at 125 ppm": "≥ 75%"
  },
  {
    "molecule": "COC(=O)N(Cc1ccc(OC(F)(F)F)cc1C)NC(=O)c1cc(C)nnc1Oc1cccc(C2CC2)c1F [b-158]",
    "pest or weed control at 125 ppm": "≥ 75%"
  },
  {
    "molecule": "COC(=O)N(Cc1ccc(Cl)cc1C)NC(=O)c1cc(C)nnc1Oc1cccc(C2CC2)c1F [b-34]",
    "pest or weed control at 125 ppm": "≥ 75%"
  },
  {
    "molecule": "Cc1ccc(CN(NC(=O)c2cc(C)nnc2Oc2cccc(C3CC3)c2F)S(C)(=O)=O)c(C)c1 [b-26]",
    "pest or weed control at 125 ppm": "≥ 75%"
  },
  {
    "molecule": "CC(=O)N(Cc1ccc(C)cc1C)NC(=O)c1cc(C)ncc1Oc1cccc(C2CC2)c1F [b-9]",
    "pest or weed control at 125 ppm": "≥ 75%"
  },
  {
    "molecule": "COC(=O)N(Cc1ccc(C)cc1C)NC(=O)c1cc(OC)ncc1Oc1cccc(C2CC2)c1F [b-94]",
    "pest or weed control at 125 ppm": "≥ 75%"
  },
  {
    "molecule": "COC(=O)N(Cc1ccc(C)c(C)c1)NC(=O)c1cc(C)nnc1Oc1cccc(C2CC2)c1F [b-29]",
    "pest or weed control at 125 ppm": "≥ 75%"
  },
  {
    "molecule": "COC(=O)N(Cc1ccc(C)cc1C)NC(=O)c1cc(C)nnc1Oc1cccc(C(F)(F)F)c1 [b-53]",
    "pest or weed control at 125 ppm": "≥ 75%"
  }
]
